The values you see were collected from paper PMC6385087.

system-name: AChE from electric eel (Electrophorus electricus, UniProt O42275)
Sequence (O42275 24-633): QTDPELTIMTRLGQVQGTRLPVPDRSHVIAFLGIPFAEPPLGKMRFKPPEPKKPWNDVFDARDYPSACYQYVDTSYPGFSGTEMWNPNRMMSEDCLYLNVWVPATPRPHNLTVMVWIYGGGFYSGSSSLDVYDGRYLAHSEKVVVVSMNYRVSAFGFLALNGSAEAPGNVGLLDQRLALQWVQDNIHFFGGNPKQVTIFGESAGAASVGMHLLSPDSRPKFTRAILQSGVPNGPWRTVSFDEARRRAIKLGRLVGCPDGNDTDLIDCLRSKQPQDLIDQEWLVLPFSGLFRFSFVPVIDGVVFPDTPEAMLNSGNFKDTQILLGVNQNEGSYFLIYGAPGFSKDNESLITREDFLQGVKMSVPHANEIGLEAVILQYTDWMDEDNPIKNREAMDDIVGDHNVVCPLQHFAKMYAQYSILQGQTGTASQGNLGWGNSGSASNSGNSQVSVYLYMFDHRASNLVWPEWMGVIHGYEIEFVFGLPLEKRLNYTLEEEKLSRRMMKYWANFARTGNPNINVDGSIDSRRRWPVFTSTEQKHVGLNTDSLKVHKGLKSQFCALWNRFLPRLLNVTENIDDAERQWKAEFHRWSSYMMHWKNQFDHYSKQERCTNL
Cut-off 100 nM on IC50: below means 1.0, at or above means 0.0.

Determine if "COc1cc(-c2nc3ccccc3s2)ccc1OCC(=O)NCCNc1c2c(nc3ccccc13)CCCC2" shows IC50 strictly lower than 100 nM.
0.0

Determine if "COc1cc(-c2nc3ccccc3s2)ccc1OCC(=O)NCCCNc1c2c(nc3cc(Cl)ccc13)CCCC2" shows IC50 strictly lower than 100 nM.
0.0

Determine if COc1cc(-c2nc3ccccc3s2)ccc1OCC(=O)NCC(O)CNc1c2c(nc3ccccc13)CCCC2 (stereo not drawn) shows IC50 strictly lower than 100 nM.
0.0

Determine if COc1cc(-c2nc3ccccc3s2)ccc1OCC(=O)NCC(O)CNc1c2c(nc3cc(Cl)ccc13)CCCC2 (stereo not drawn) shows IC50 strictly lower than 100 nM.
0.0

Determine if "COc1cc(-c2nc3ccccc3s2)ccc1OCC(=O)NCCNc1c2c(nc3cc(Cl)ccc13)CCCC2" shows IC50 strictly lower than 100 nM.
1.0

Determine if "COc1cc(-c2nc3ccccc3s2)ccc1OCC(=O)NCCCNc1c2c(nc3ccccc13)CCCC2" shows IC50 strictly lower than 100 nM.
0.0
